Source listed as ChEMBL document CHEMBL1201862.

test system: ACHN; test: NCI tumour cell line growth inhibition, 48 h
Activity calls are given as the source filed them. No stated cut-off is given here; in the data, active = GI50 up to about 1.1 µM and inactive = higher.
# valid calls are active, inactive; nothing else

Below, 2 molecules whose answers are already recorded.
Hello, I am checking results. What call was entered for `COc1ccc(/C=N/N=C(\N)NO)c(OC)c1C` ?
inactive

# lookup: test call for `Cc1ccc(/N=C2/C(c3ccccc3)=C(SC3=C(c4ccccc4)/C(=N/c4ccc(C)cc4)c4ccccc43)c3ccccc32)cc1`
inactive

Continuing:
Assay result, entry COc1ccc(N2C(=O)C3c4[nH]c5c(C)cccc5c4C4CCC(c5ccccc5)CC4C3C2=O)cc1 (stereo unspecified) — outcome?
inactive

How did this test come out for CCCCOP1(=O)CC(C)=C(Cl)C(C)(OC)C1 (stereo unspecified) ?
inactive

Which outcome was assigned to `Cc1cc(C)c(C[C@H]2COC(=O)[C@]2(O)Cc2c(C)cc(C)cc2C)c(C)c1` in this test?
inactive

What outcome does the record of this test show for `SC1=NC2(CCCCCC2)NN1c1ccccc1` ?
active

Identify the outcome logged in this assay for the molecule shown: CC(=O)NC(CCCNC(=O)N(CCCl)N=O)C(=O)NCc1ccccc1 (stereo unspecified)
inactive

----------
test system: HCT-15
Parameter: GI50 (µM)
Just the number please, in µM, no unit attached.

# example entries with known answers
// fetch HCT-15 GI50 for `Cc1cc(N(CCOS(C)(=O)=O)CCOS(C)(=O)=O)ccc1/C=N/c1ccc(-c2csc(-c3ccccc3)n2)c(Cl)c1`
8.04

Query for HCT-15: what GI50 does the record show for `c1cc(CSP234N5CCN2CCN3CCN4CC5)cc(CSP234N5CCN2CCN3CCN4CC5)c1` ?
22.3

---
What value of GI50 on HCT-15 does COc1ncnc2c(Cl)c(C(O)c3ccccc3)c(Cl)cc12 (stereo not given) have?
24.6

What value of GI50 on HCT-15 does Cc1cccc2c1Oc1cc(Cl)ccc1C2NC(=O)CCN1CCCCC1 (stereo not given) have?
17.7

Which measured GI50 belongs to `O=C(CSc1nc2ccc(I)cc2c(=O)n1Cc1ccccc1)Nc1ccccc1` , tested on HCT-15?
41.5

----------
tested on: NCI-H226; assay: NCI tumour cell line growth inhibition, 48 h
Calls of active or inactive are those of the source. No stated cut-off is given here; in the data, active = GI50 up to about 1.1 µM and inactive = higher.
Form entry, call: pick from label 1 for active, label 0 for inactive

Field: outcome | Entry: `O=C1c2cccc3cccc(c23)C(=O)N1CCCNCCCCNCCCN1C(=O)c2cccc3cccc(c23)C1=O`
label 1

Identify the outcome logged in this assay for the molecule shown: `COc1cc2c(c(OC)c1OC)-c1ccc(SC)c(=O)cc1[C@@H](NCc1cccc(C#N)c1)CC2`
label 1

Outcome? `N#Cc1c(NC(=S)NCc2ccccc2)sc2c1CCN(N1CCc3c(sc(NC(=S)NCc4ccccc4)c3C#N)C1)C2`
label 0

Okay, now this molecule:
Hello, I am checking results. What call was entered for `O=C1c2cc([N+](=O)[O-])cnc2S(=O)(=O)N1c1ccc(Br)cc1` ?
label 0

----------
test system: UACC-257; assay: NCI tumour cell line growth inhibition, 48 h
Active and inactive are the calls of the source. Rule as the data show it: active = GI50 up to about 1.1 µM and inactive = higher.
Reply using exactly one outcome from Yes for active, No for inactive

Consider the following illustrative entries.
Could you please tell me the result logged for `O=c1ccn([C@@H]2C[C@H]2CO)c(=O)[nH]1` in this assay?
No

Test call for this compound, please: CC1=NNC(=O)C1C1CC(c2c[nH]c3ccccc23)=NN=C1Cl (stereo unspecified)
No

Further cases:
# outcome recorded in this test, key = `N#C/C(=C\c1ccc[nH]1)C(=O)c1ccccc1`
No

# lookup: test call for C=C1C2C[C@@H]3OC4CC5O[C@]6(CC5OC4C(C)C3OC(=O)CC3CC[C@@H]4OC5C7OC8C[C@](CCC9CC(=C)[C@H](CCC(C[C@H]1C)O2)O9)(OC7C4O3)O[C@@H]85)C[C@@H]1O[C@@]2(CC(C)[C@@H]3OC(CC(=O)CCO)C(O)C[C@@H]3O2)CC(C)[C@@H]1O6 (stereo partly specified)
Yes

# lookup: test call for `O=S(=O)(c1cc(Cl)ccc1Cl)N1CCN(c2cccc(Cl)c2)CC1`
No

----------
tested on: UACC-62; assay: NCI tumour cell line growth inhibition, 48 h
The source made the active and inactive calls. No stated cut-off is given here; in the data, active = GI50 up to about 1.1 µM and inactive = higher.
Pick one: active, inactive

State the result this test recorded for `SC1=NC2(CCCCCC2)NN1c1ccccc1` .
active

Dear all, I need the recorded test outcome for `CCOC(=O)c1ccc(N2C(=O)/C(=C/c3ccc(N(CCC#N)CCC#N)cc3)N=C2c2cc([N+](=O)[O-])ccc2Cl)cc1` , thank you.
inactive

Call for entry c1ccc2[nH]c(C3CCCCO3)nc2c1 (stereo unspecified) :
inactive

Please let me know the test result on file for `C/C(=N/NC(=O)c1ccncc1)C(F)(F)F` .
inactive

More entries:
// return assay outcome for `O=C(/C=N/O)Nc1cc(Cl)c(Cl)cc1Cl`
inactive

For this molecule, state the assay outcome: CC1(C)C2C=CC1(C)C1(CC2)OCCO1 (stereo unspecified)
inactive

----------
system: NCI-H460; assay: NCI tumour cell line growth inhibition, 48 h
Calls of active or inactive are those of the source. No stated cut-off is given here; in the data, active = GI50 up to about 1.1 µM and inactive = higher.
Parameter: GI50

# query: GI50 | item N#CC1(C#N)C(c2ccccc2)C=CC(c2ccc([N+](=O)[O-])cc2)C1(C#N)C#N (centres undefined) | system: NCI-H460
30.3 µM (inactive)

Please state recorded GI50 (tested on NCI-H460) of `COc1ccc(NC(=O)c2cc(NC(=O)/C=C/c3ccccc3)c(OC)c(OC)c2)cc1`
11.7 µM (inactive)

Fill in the recorded GI50 for this molecule, with NCI-H460 as test system: `CCCCc1ccc(N2C(=O)c3cc([N+](=O)[O-])cnc3S2(=O)=O)cc1`
> 100 µM (inactive)

For the record `O=C(CCCn1ccnc1[N+](=O)[O-])NCCn1ccnc1[N+](=O)[O-]` , what value of GI50 is listed for NCI-H460?
> 100 µM (inactive)

Recall the recorded GI50 for `Cc1ccc2c(c1)C(=O)/C(=C\c1ccc(Cl)cc1)CCS2(=O)=O` with NCI-H460 and state it.
2.13 µM (inactive)

Give NCI-H460 GI50 for `C(=N\N=C1NCCCCN1)/c1ccc2ccccc2c1`
22.3 µM (inactive)

---
Form entry - test system: NCI-H460; read-out: GI50; molecule: CC(C)CC(N)C(=O)O (centres undefined)
> 100 µM (inactive)

GI50 of N/N=C(/C(=O)Nc1cccc(Cl)c1)C(C(=O)c1ccc(O)cc1O)C1OC(=O)c2ccccc21 (centres undefined) on NCI-H460?
52.2 µM (inactive)

Please tell me: GI50 of `CCOC(=O)COC1=Nc2cc(OC)c(OC)c3nc(Cl)cc(c23)C1=O` , system NCI-H460?
18.8 µM (inactive)

Hi! What's the reported GI50 for `Nc1ccc2c(SCC(=O)Nc3ccccc3-c3ccccc3NC(=O)CSc3c4ccccc4nc4cc(N)ccc34)c3ccccc3nc2c1` on NCI-H460?
29.2 µM (inactive)

Hello, I am looking for reported GI50 with NCI-H460 for COC(=O)C(Cc1ccccc1)NC(=O)CNC(=O)CSc1nnc(COc2ccc(Cl)cc2)n1-c1ccccc1 (centres undefined) . Could you help?
16.3 µM (inactive)

Record `N#Cc1sc2c(c1OC(=O)c1cccs1)c(=O)n(-c1ccccc1)c(=S)n2-c1ccccc1` : what is its GI50 with NCI-H460?
28.2 µM (inactive)

----------
Recorded GI50 by entry
tested on: NCI/ADR-RES; test: NCI tumour cell line growth inhibition, 48 h
Calls of active or inactive are those of the source. No stated cut-off is given here; in the data, active = GI50 up to about 1.1 µM and inactive = higher.

Some molecules with recorded GI50:
Look up GI50: `O=C(/C=N/O)Nc1cc(Cl)c(Cl)cc1Cl`
33.9 µM (inactive)

Given the molecule COC(OC)C(O)C1OC=CC1n1cnc2c(N)ncnc21 (stereo unspecified) , what is its reported GI50?
> 100 µM (inactive)

Entry under review: `Cc1cc(C)c(C[C@H]2COC(=O)[C@]2(O)Cc2c(C)cc(C)cc2C)c(C)c1` . Reported GI50?
15.6 µM (inactive)

So what's the measured GI50 for this one? Cc1ccc2c(c1C)C(=O)C1(C2)Cc2ccc3c(c2C1=O)CCC3 (stereo unspecified)
> 100 µM (inactive)

Name the reported GI50 value associated with the molecule `CSc1cc(=O)n2c3ccccc3c3ccnc1c32`
73.8 µM (inactive)

Others:
GI50 for C=C1CC(COc2ccc3ccc(=O)oc3c2)(c2ccccc2)OC1=O (stereo unspecified) ?
2.48 µM (inactive)

If you can, please state the reported GI50 value of `Cc1ccc(O)c(C(=O)/C=C/c2ccccc2)c1` .
53.5 µM (inactive)

Report GI50 for COC(=O)C1Cc2c([nH]c3ccccc23)-c2[nH]c3ccccc3c2CC(NC(C)=O)C(=O)NCC(=O)N1 (stereo unspecified) please.
> 100 µM (inactive)

Look at this molecule and give its reported GI50. `O=c1cc(NNCc2ccccc2)[nH]c(=O)[nH]1`
> 100 µM (inactive)

GI50 lookup needed for COc1ccc(CC[N+]2(C)COc3cc4oc(=O)cc(C)c4cc3C2)cc1OC (stereo unspecified) , thanks.
> 100 µM (inactive)
